Assign IC50 to each entry below.
Molecular target: KRAS-G13D (Homo sapiens, UniProt P01116, G13D)
Sequence (P01116 with tags, fused parts or gaps isoform P01116-2 G13D): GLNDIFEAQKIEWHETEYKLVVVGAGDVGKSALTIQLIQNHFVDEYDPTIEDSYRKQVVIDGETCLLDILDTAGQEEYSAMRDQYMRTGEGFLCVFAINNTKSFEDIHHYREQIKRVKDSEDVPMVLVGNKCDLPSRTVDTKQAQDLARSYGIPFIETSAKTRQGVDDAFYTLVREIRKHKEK
Assay: SOS-catalyzed nucleotide exchange assay (Procedure A, TR-FRET), KRAS-G13D
Format: biochemical
Settings: nucleotide exchange, Procedure A; read-out: KRAS G13D GNE IC50
Field: numeric (nM). Do not append units.

Q: // lookup IC50 for Cc1cc2[nH]ncc2c(-c2cncc3c2sc2nc(OC[C@@]45CCCN4C[C@H](F)C5)nc(N4CCOC[C@@](C)(O)C4)c23)c1C(F)(F)F [Ex-273]
Result: 1100

Q: Can you share its IC50? I mean this molecule: C[C@@]1(O)COCCN(c2nc(OC[C@]3(CN4CC5(CCCOC5)C4)CC3(F)F)nc3sc4c(-c5c(C6(F)CC6)c(Cl)cc6[nH]ncc56)nccc4c23)C1 [Ex-249]
Result: 21.3

Q: I'd like to know its IC50. The molecule in question is C[C@@]1(O)COCCN(c2nc(OC[C@@]34CCCN3C[C@H](F)C4)nc3sc4c(-c5c(C6(F)CC6)c(Cl)cc6[nH]ncc56)nccc4c23)C1 [Ex-52]
Result: 9.02

Q: May I ask what IC50 has been recorded for CN1CCC[C@H]1COc1nc(N2CCOC[C@@](C)(O)C2)c2c(n1)sc1c(-c3c(C4CC4)c(C(F)(F)F)cc4[nH]ncc34)nccc12 [Ex-79] ?
Result: 27.9

Q: I'd like to know its IC50. The molecule in question is C[C@H]1CCN1C[C@@]1(COc2nc(N3CCOC[C@@](C)(O)C3)c3c(n2)sc2c(-c4c(C5(F)CC5)c(Cl)cc5[nH]ncc45)nccc23)CC1(F)F [Ex-253]
Result: 18.4

Q: Fill in: IC50 of Cc1cc2[nH]ncc2c(-c2nccc3c2sc2nc(OC[C@@]45CCCN4C[C@H](F)C5)nc(N4CCOC[C@@](C)(O)C4)c23)c1C12CC(C1)C2 [Ex-43] is ___
Result: 17.5

Q: Please give the measured IC50 for this molecule: Cc1cc2[nH]ncc2c(-c2nccc3c2sc2nc(OC[C@@]45CCCN4C[C@H](F)C5)nc(N4CCOC[C@@](C)(O)C4)c23)c1C(F)F [Ex-129]
Result: 79

Q: Endpoint output: IC50 of Cc1cc2[nH]ncc2c(-c2nccc3c2sc2nc(OC[C@@]45CCCN4C[C@H](F)C5)nc(N4CCOC(CO)C4)c23)c1C(F)(F)F (stereo partly drawn) [Ex-180] . Value?
Result: 813

Q: Recorded IC50 of Cc1cc2[nH]ncc2c(-c2nccc3c4c(N5CCOC[C@@](C)(O)C5)nc(OC[C@@]56CCCN5C[C@H](F)C6)nc4n(C)c23)c1C(F)(F)F (single isomer, unassigned) [Ex-1] , please.
Result: 77.4

Q: Entry C[C@@]1(O)COCCN(c2nc(OC[C@@]34CCCN3C[C@H](F)C4)nc3sc4c(-c5c(-c6cccs6)c(Cl)cc6[nH]ncc56)nccc4c23)C1 [Ex-143] : reported IC50 = ?
Result: 124

Q: Can you share its IC50? I mean this molecule: COc1cc2c3c(N4CCOC[C@@](C)(O)C4)nc(OC[C@@]45CCCN4C[C@H](F)C5)nc3n(C)c2c(-c2c(C(F)(F)F)c(C)cc3[nH]ncc23)n1 [Ex-26]
Result: 94.3

Q: Record request: IC50 value, item Cc1cc2[nH]ncc2c(-c2nccc3c4c(N5CCC[C@@](C)(O)C5)nc(OC[C@]5(CN(C)C)CC5(F)F)nc4n(C)c23)c1C(F)(F)F [Ex-6]
Result: 49
